Source listed as paper PMC8318231.

Test system: T. cruzi intracellular amastigotes in H9c2 cells
test.summary: Rate-of-Kill (RoK) high-content imaging assay, amastigotes per cell (AM/CELL) and curve descriptors
Assay type: cell-based, Trypanosoma cruzi
measurement.conditions: Time 24; figure 4 A
Cut-off 30 on AM/CELL NORM, inclusive. At or above means YES; below means NO.

A selection of reference data follows.
- CN(C)Cc1ccc(N2CCC(NS(=O)(=O)c3ccc(Cl)cc3)CC2)cc1 [TCMDC-143623]: NO
- CC1CS(=O)(=O)CCN1/N=C/c1ccc([N+](=O)[O-])o1 (stereo not shown) [Nifurtimox, nifurtimox, reference compound]: YES
- O[C@H]1CC[C@H](Nc2nccc(-c3sc(C4CCOCC4)nc3-c3ccc(F)c(F)c3)n2)CC1 [TCMDC-143387]: NO
- Cl.O=c1cc(NCCCNC2CCOc3c(I)cc(Cl)cc32)[nH]c2ccccc12 (stereo not shown) [TCMDC-139489]: YES
- COc1ccc(NS(=O)(=O)c2cc(NC(=O)Cc3ccc(C)cc3)ccc2N2CCOCC2)cc1 [TCMDC-143313]: NO

Exercise: Evaluate O=C(Cn1ccnc1[N+](=O)[O-])NCc1ccccc1 [Benznidazole, benznidazole, reference compound] : AM/CELL NORM at minimum 30?
Solution: YES

Exercise: Note, next up: Cc1nccn1C1CCCN(C(=O)c2cc3c(F)cccc3s2)C1 (stereo not shown) [TCMDC-143498]
Solution: YES

Exercise: Check Cc1cccc(N2CCCN(Cc3c[nH]c4ccccc34)CC2)n1 [TCMDC-143185] too.
Solution: YES

###

Tested on: T. cruzi intracellular amastigotes in H9c2 cells
test.summary: Rate-of-Kill (RoK) high-content imaging assay, amastigotes per cell (AM/CELL) and curve descriptors
Type: cell-based, Trypanosoma cruzi
measurement.conditions: figure 5; in µM
Method: For this high-content intracellular imaging assay, H9c2 cells were seeded in 225 cm^2 T- FLASK in DMEM with 10% FBS for 4 h to allow attachment. […] Trypomastigotes were then collected and counted in a CASY Cell Counter using the 60 μm capillary. […] Cells were counted in a CASY Cell Counter, using the 150 μm capillary, and their density set at 5 x 10^4 cells/mL in supplemented DMEM. […] Then plates were read in a PerkinElmer Opera Phenix using a 20x objective, 3 fields per well. […]
result.type: MCC50

Look over these answered cases.
* Cc1nccn1C1CCCN(C(=O)c2cc3c(F)cccc3s2)C1 (stereo not drawn) | 13.7037
* CCCN1CCN(Cc2ccc(S(=O)(=O)Nc3cccc(C)c3)cc2)CC1.O=C(O)C(F)(F)F.O=C(O)C(F)(F)F | 1.852
* CCCCn1nnnc1CSc1nc(C)cc(C)c1C#N | 0.6173

Exercise: Query for T. cruzi intracellular amastigotes in H9c2 cells: what MCC50 does the record show for CCCc1nc2nc(N)nc(N)c2cc1CC ?
Solution: 25.9259

Exercise: Let us now turn to Cc1c(C#N)c([N+](=O)[O-])nn1Cc1cccc(Cl)c1Cl
Solution: 1.852

Exercise: Also need CS(=O)(=O)c1ccc(CC(=O)Nc2nc(-c3ccc(Cl)s3)cs2)cc1 , thanks.
Solution: 16.6667

Exercise: And for Cc1nc2nc(C)c(Cc3ccc(C(C)C)cc3)c(=O)n2[nH]1 ?
Solution: 25.3086

Exercise: Please do the same for COc1ccc(NS(=O)(=O)c2cc(NC(=O)c3ccc([N+](=O)[O-])s3)ccc2OC)cc1 as well.
Solution: 0.2058

Exercise: Similarly, Cc1ccc(C)c(OC2CCN(C(=O)C(C)n3ccnc3)CC2)c1 (stereo not drawn) ?
Solution: 5.556

###

Test system: T. cruzi intracellular amastigotes in H9c2 cells
test.summary: Rate-of-Kill (RoK) high-content imaging assay, amastigotes per cell (AM/CELL) and curve descriptors
Format: cell-based, Trypanosoma cruzi
measurement.conditions: maximum effect at 72 h, RoK assay
# ME_72h (%) per record follows
API: value field is a number in %; no unit string.

Examples with their reported ME_72h (%) follow.
* COc1ccc(NS(=O)(=O)c2cc(NC(=O)Cc3ccc(C)cc3)ccc2N2CCOCC2)cc1 [TCMDC-143313] | -1487.8
* CN(Cc1ccc(C(N)=O)cc1)C(c1ccc(F)cc1)c1cccnc1 (stereo not drawn) [TCMDC-143504] | 0.7
* COc1ccc2c(Cl)c(C(=O)N3CCC3)sc2c1Cl [TCMDC-143262] | -114.3
* O=C(NCC1CCCCC1)c1cc(=O)c2ccccc2o1 [TCMDC-123621] | 64.5
* COc1ccc(C(=O)Nc2cc(C(F)(F)F)ccc2N2CCOCC2)c(OC)c1 [TCMDC-143310] | 94.1
* O=C(O)C(F)(F)F.O=c1oc2ccccc2n1C1CCN(Cc2ccccc2-c2cccnc2)CC1 [TCMDC-143389] | 54.0
* COc1ccc2ncc(=O)n(CCN3CCOC(CNCc4ccc(C(F)(F)F)cc4F)C3)c2n1 (stereo not drawn) [TCMDC-143384] | -18.9
* O=c1[nH]ccc2ccc(-c3ccncc3)cc12 [TCMDC-143631] | 18.4

Could you now look at the following compound, please?
Exercise: API: value(readout= ME_72h (%), system= T. cruzi intracellular amastigotes in H9c2 cells, query= CCCN(Cc1ccc(OC)c(OC)c1)Cc1cc(=O)c2c(C)cc(C)cc2[nH]1 [TCMDC-143331] )
Solution: 85.5

###

Test system: T. cruzi intracellular amastigotes in H9c2 cells
test.summary: Rate-of-Kill (RoK) high-content imaging assay, amastigotes per cell (AM/CELL) and curve descriptors
Assay type: cell-based, Trypanosoma cruzi
measurement.conditions: Time 4; sheet figure 4 A
result.type: AM/CELL NORM
Give your answer as a number; write no unit.

Consider the worked cases shown below.
• COc1ccc(C2CC(c3ccccc3Cl)=NN2C(=O)CNC(=O)C2CCC2)cc1 (centres unmarked) [TCMDC-143130] = 21.8567
• Cc1nc2nc(C)c(Cc3ccc(C(C)C)cc3)c(=O)n2[nH]1 [TCMDC-143087] = 2.257
• c1ccc2c(CCOc3nccnc3-c3ccncc3)c[nH]c2c1 [TCMDC-143562] = -8.107
• CC(C)(C)C(Cn1ccnc1)NC(=O)c1ccc2nc(C3CC3)oc2c1 (centres unmarked) [TCMDC-143336] = 3.062
• CCCn1c(NC(=O)Cc2ccc(Cl)cc2)nc2ccccc21 [TCMDC-143279] = 0.2091

Exercise: Give recorded AM/CELL NORM with T. cruzi intracellular amastigotes in H9c2 cells for the following compound: COc1cc(-c2nc(N3CCOCC3)sc2-c2ccnc(NC3CCOCC3)n2)ccc1Cl.O=C(O)C(F)(F)F [TCMDC-143414]
Solution: -8.885

Exercise: Same question, CNc1c(C(N)=O)c(-c2ccc3scnc3c2)nn1CC(F)(F)F.O=C(O)C(F)(F)F [TCMDC-143463] this time
Solution: 20.0861

Exercise: Now try O=C(CN(c1cccc(C(F)(F)F)c1)S(=O)(=O)c1ccc(Cl)cc1)NCc1ccc(F)c(F)c1 [TCMDC-143548] .
Solution: 27.6101

###

System: T. cruzi intracellular amastigotes in H9c2 cells
test.summary: Rate-of-Kill (RoK) high-content imaging assay, amastigotes per cell (AM/CELL) and curve descriptors
Format: cell-based, Trypanosoma cruzi
measurement.conditions: maximum effect at 72 h, RoK assay
result.type: ME_72h (%)
Lab book: enter the figure in %, no units written.

Consider the worked cases shown below.
- Cc1cccc(N2CCCN(Cc3c[nH]c4ccccc34)CC2)n1 [TCMDC-143185]: 87.2
- CCn1nccc1CN(C)C(=O)C=Cc1ccc(Cl)cc1 [TCMDC-143325]: 23.7
- CC(=Cc1ccccc1)CN1CCC(=O)N(Cc2cccnc2)CC1 [TCMDC-143421]: -1.9
- O=C(Cn1ccnc1[N+](=O)[O-])NCc1ccccc1 [Benznidazole, benznidazole, reference compound]: 90.7

Let's switch to this molecule now.
Exercise: Fill in the recorded ME_72h (%) for this molecule, with T. cruzi intracellular amastigotes in H9c2 cells as test system: NC(=O)c1ccccc1Nc1nc(NC2CCCCC2)nc2[nH]ccc12 [TCMDC-143314]
Solution: -1441.4

###

Tested on: T. cruzi Tulahuen trypomastigotes
test.summary: T. cruzi trypomastigote assay (Cell Titer-Glo viability, ATP luminescence)
Type: cell-based, Trypanosoma cruzi
measurement.conditions: trypomastigote assay, 48 h; figure 1A
The reader will find reported 48 pIC50 values listed item by item below.

- Cc1cccc(NS(=O)(=O)c2cnc3sc(C)cn3c2=O)c1: < 4.3

Exercise: So what does the record say about 48 pIC50 for CC1=NN(C(=O)CCn2cnc([N+](=O)[O-])n2)C(O)(C(F)(F)F)C1 (stereo not drawn) ?
Solution: < 4.3

Exercise: Follow-up entry: COc1ccc2ncc(F)c(NC(=O)[C@]3(O)CC[C@@H](NCc4ccc5c(c4)OCCO5)CC3)c2n1.Cl
Solution: 4.4

Exercise: # iterate: O=C(Nc1nc(-c2ccc(S(=O)(=O)N3CCOCC3)cc2)cs1)c1ccc([N+](=O)[O-])cc1
Solution: 5.8

Exercise: What do we get for O=C(NCC(c1cccnc1)N1CCc2ccccc2C1)C(=O)Nc1cccc(Cl)c1 (stereo not drawn) ?
Solution: 4.8
